test system: BT-549 breast; experiment: NCI-60 one-dose screen, 48 h (100 = growth as untreated, 0 = no growth, -100 = all killed); conditions: 10 µM unless noted
This is part of a sample that, as a whole, favours compounds with a hit. Of some 83,000 tested, about 20% had one in any assay.
The entries below come with measured growth values attached.

{"compound": "Cc1[nH]c(C2CC(c3ccc(C(F)(F)F)c(F)c3)=NN2c2ccccc2)c(C)c1C(=O)NCC(F)(F)F (stereo unspecified)", "target.under.test": "BT-549 breast", "unit.label": "%", "growth": 103}
{"compound": "Cc1cccc(N2CCC(=O)NC2=S)c1", "target.under.test": "BT-549 breast", "unit.label": "%", "growth": 104}
{"compound": "COc1ccc2c(c1)/C(=N/c1n[nH]c(=S)s1)C(=O)N2", "target.under.test": "BT-549 breast", "unit.label": "%", "growth": 113}
{"compound": "O=S(=O)(NCCNc1nccc(-c2c(-c3ccc(F)c(O)c3)nc3sccn23)n1)c1ccc(F)cc1", "target.under.test": "BT-549 breast", "unit.label": "%", "growth": 49.5}
{"compound": "O=C(Nc1ccccc1[N+](=O)[O-])c1ccc(Cl)c(Cl)c1", "target.under.test": "BT-549 breast", "unit.label": "%", "growth": 85.6}
{"compound": "C#CC#CC#CC#CC#CC#CC#CC#CCC1OC[C@H](COC(=O)O[C@@H](C(=O)O[C@H]2C[C@@]3(O)[C@@H](OC(=O)c4ccccc4)[C@@H]4[C@]5(OC(C)=O)CO[C@@H]5C[C@H](O)[C@@]4(C)C(=O)[C@H](OC(C)=O)C(=C2C)C3(C)C)[C@@H](NC(=O)c2ccccc2)c2ccccc2)O1 (stereo partly specified)", "target.under.test": "BT-549 breast", "unit.label": "%", "growth": 26.4}
{"compound": "O=c1ccc(=O)n(-c2nc(-c3ccc([N+](=O)[O-])cc3)cs2)[nH]1", "target.under.test": "BT-549 breast", "unit.label": "%", "growth": 98.5}
{"compound": "Clc1c(Cl)[n+](Cc2ccc3ccccc3c2)cn1Cc1ccc2ccccc2c1", "target.under.test": "BT-549 breast", "unit.label": "%", "growth": -69.5}
{"compound": "Cc1ccc(NC(=O)Cn2c(Br)nc3c2c(=O)n(C)c(=O)n3C)cc1", "target.under.test": "BT-549 breast", "unit.label": "%", "growth": 0.261}
{"compound": "Cc1nc2sc(C(=O)Nc3cccc(Br)c3C)c(N)c2cc1C(O)c1ccccc1 (stereo unspecified)", "target.under.test": "BT-549 breast", "unit.label": "%", "growth": 28.2}
{"compound": "c1nc2ccc(-c3cc4ccc5[nH]ncc5c4c4c3CCCC4)cc2[nH]1", "target.under.test": "BT-549 breast", "unit.label": "%", "growth": 34.1}
